# test protocol: Drug repurposing screens with cells derived from glioblastoma tumor samples (AID 1345199); note: % is set by controls: 0 for no effect and ±100 for the full control effect; nearly all actives have a fitted effect of over 40% in size
# details: GBM patient neurospheres viability, ATP luminescence, 48 h; at 45.9 µM (top of the series); tumour line B
Records with an inconclusive call do not appear.
observation type: activity, negative = cell killing (%)
Write down the numeric answer in % and omit the unit.

Example results:
compound	activity, negative = cell killing (%)
CN(C)CCN1C(=O)c2ccccc2N(C)c2ccccc21	-10.1
CC1=C(C(=O)O)N2C(=O)[C@@H](NC(=O)[C@H](N)c3ccccc3)[C@H]2SC1	-0.246

[ask] Look at this compound and give its reported activity, negative = cell killing. `N[C@H](C(=O)O)[C@@H](O)c1ccc(O)c(O)c1`
[reply] -8.13

[ask] Quick one: `Cn1c(=O)c2[nH]c(Br)nc2n(C)c1=O`
[reply] -10.3

====

# test protocol: qHTS of pediatric cancer cell lines to identify multiple opportunities for drug repurposing: Primary screen for RD cells (AID 1347104); note: nearly all actives have a fitted effect of over 55% in size
# details: RD rhabdomyosarcoma viability, CellTiter-Glo luminescence, 48 h; series mostly up to 46 µM
Results filed as inconclusive are left out. Calls of active or inactive are those of the source. The call rests on the fitted dose curve; in most records, active means well fitted cell-killing curve with a large enough effect; inconclusive means small, poorly fitted or top-dose-only effect; inactive means flat fitted curve, though single readings scatter.
A correct response names exactly one class from 1 (yes) = active, 0 (no) = inactive

Example results:
compound	class name
O[C@@H](c1cc(C(F)(F)F)nc2c(C(F)(F)F)cccc12)[C@H]1CCCCN1	1 (yes)
CC(=O)Nc1ccc(S(=O)(=O)Nc2ccc([N+](=O)[O-])cc2)cc1	0 (no)

[ask] Which outcome was assigned to `CCN(CC)CCNC(=O)COc1ccc(OC)cc1` in this test?
[reply] 0 (no)

[ask] Quick one: `CN1CCC(OC(c2ccccc2)c2ccccc2)CC1`
[reply] 0 (no)

====

# Tested on: CP191
# test protocol: qHTS profiling for inhibitors of Plasmodium falciparum proliferation (AID 504749); note: nearly all actives have a fitted effect of over 60% in size
# details: P. falciparum in erythrocytes, SYBR Green DNA, 72 h; series mostly up to 28.7 µM
Inconclusive results are not listed. Calls of active or inactive are those of the source. Calls follow the shape of the dose curve; as a rule, active = well fitted inhibition curve with a large enough effect; inconclusive = small, poorly fitted or top-dose-only effect; inactive = flat fitted curve, though single readings scatter.
A correct response names exactly one class from Yes for active, No for inactive

Example results:
molecule	class name
COc1ccc(CN(CCN(C)C)c2ncccn2)cc1	No
CCCCCCCCCCCCCCCC(=O)O	No
Cc1cc(NS(=O)(=O)c2ccc(N)cc2)nc(C)n1	No
CCOC(=O)c1ccc(N)cc1	No
CC[N+](C)(CC)CCOC(=O)C(O)(c1ccccc1)C1CCCCC1 (centres undefined)	No

[ask] Which outcome was assigned to `Cl/C(=C\n1cncn1)c1ccc(Cl)cc1Cl` in this test?
[reply] No

[ask] Quick one: `O=C1C(O)=C(O)C(=O)C(O)=C1O`
[reply] No

[ask] Quick one: `Nc1ccc(S(=O)(=O)Nc2cnc3ccccc3n2)cc1`
[reply] No

[ask] Quick one: `C=CCN1CCc2nc(N)sc2CC1`
[reply] No

====

Below, each entry is listed alongside its reported max response.
# Tested on: NIH3T3
# test protocol: Cytotoxic Profiling of Annotated Libraries Using Quantitative High-Throughput Screening (AID 1296008); note: % is set by controls: 0 for no effect and ±100 for the full control effect; nearly all actives have a fitted effect of over 60% in size
# details: Five cell lines viability, CellTiter-Glo ATP luminescence, 48-72 h; active compounds read low
# Procedure: Cell-based phenotypic screening is a commonly used approach to discover biological pathways, novel drug targets, chemical probes and high-quality hit-to-lead molecules. […] A pintool (Kalypsys) was used to transfer 23 nL of compound solution to the 1536-well assay plates. […] Plates were left at room temperature for 10 min before imaging the ATP-coupled luminescence using a ViewLux microplate imager (PerkinElmer, Waltham, MA).
Records with an inconclusive call do not appear.
Write down the numeric answer in % and omit the unit.

[ask] Look at this molecule and give its reported max response. `C=C[C@H]1CN2CC[C@H]1C[C@H]2[C@H](O)c1ccnc2ccc(OC)cc12`
[reply] -2.33

====

# Tested on: SKOV3
# test protocol: Primary qHTS to identify gynecologic anti-cancer compounds using libraries of approved drugs and bioactive compounds (AID 1345084); note: % is set by controls: 0 for no effect and ±100 for the full control effect; nearly all actives have a fitted effect of over 55% in size
# details: Gynecologic cancer cell panel viability, ATPlite luminescence, 48 h; series mostly up to 57.5 µM
Inconclusive results are not listed. Calls of active or inactive are those of the source. Calls come from the whole dose curve; as a rule, active = well fitted cell-killing curve with a large enough effect; inconclusive = small, poorly fitted or top-dose-only effect, or effect the other way; inactive = flat fitted curve, though single readings scatter.
A correct response names exactly one class from active, inactive

Example results:
compound	class name
O=C(O)C1(C(=O)O)CCC1.[NH2-].[NH2-].[Pt+2]	inactive
CC(CNC1CCCCC1)OC(=O)c1ccccc1 (stereo not given)	inactive
CO[C@H]1C=CO[C@@]2(C)Oc3c(C)c(O)c4c(O)c(c(/C=N/N5CCN(C)CC5)c(O)c4c3C2=O)NC(=O)/C(C)=C\C=C[C@H](C)[C@H](O)[C@@H](C)[C@@H](O)[C@@H](C)[C@H](OC(C)=O)[C@@H]1C	inactive
O=S(c1cc(Cl)cc(Cl)c1O)c1cc(Cl)cc(Cl)c1O	inactive
OCCOCCN1CCN(C2=Nc3ccccc3Sc3ccccc32)CC1	inactive
CCN(CC)CCOC(=O)C1(c2ccccc2)CCCC1	inactive
COP(=O)(OC)OC(c1ccc(Cl)cc1)P(=O)(OC)OC (stereo not given)	inactive
CCNC(=O)NCc1cccc(Cl)c1	inactive

[ask] Which outcome was assigned to `CC(=O)O[C@]1(C(C)=O)CC[C@H]2[C@@H]3C=C(Cl)C4=CC(=O)CC[C@]4(C)[C@H]3CC[C@@]21C` in this test?
[reply] inactive

[ask] Quick one: `CC1(C)OC[C@@H]2O[C@@]3(C(=O)O)OC(C)(C)O[C@H]3[C@@H]2O1`
[reply] inactive

[ask] Quick one: CN(C)CCOC(=O)C(c1ccccc1)C1(O)CCCC1 (stereo not given)
[reply] inactive

====

# Test system: GB4
# test protocol: qHTS profiling for inhibitors of Plasmodium falciparum proliferation (AID 504749); note: nearly all actives have a fitted effect of over 60% in size
# details: P. falciparum in erythrocytes, SYBR Green DNA, 72 h; series mostly up to 28.7 µM
Records with an inconclusive call do not appear. Active and inactive are the calls of the source. Calls follow the shape of the dose curve; as a rule, active = well fitted inhibition curve with a large enough effect; inconclusive = small, poorly fitted or top-dose-only effect; inactive = flat fitted curve, though single readings scatter.
A correct response names exactly one class from active, inactive

Example results:
compound	class name
O=C1C(=O)c2ccccc2C(O)=C1C1CCC(c2ccc(Cl)cc2)CC1 (stereo not drawn)	active
CCOC(=O)c1c(N)sc2c1CCN(Cc1ccccc1)C2	active
Cn1c(=O)c2[nH]c(Br)nc2n(C)c1=O	inactive
Cc1cc(NS(=O)(=O)c2ccc(N)cc2)nc(C)n1	inactive
NC(N)=NCc1cccc(I)c1	inactive

[ask] Which outcome was assigned to `CCc1oc2ccccc2c1C(=O)c1cc(Br)c(O)c(Br)c1` in this test?
[reply] inactive

[ask] Quick one: `CCNC(=O)/C=C/c1cccc(Br)c1`
[reply] inactive

[ask] Quick one: COP(=O)(OC)OC(c1ccc(Cl)cc1)P(=O)(OC)OC (stereo not drawn)
[reply] inactive

[ask] Quick one: `C=C[C@@]1(C)CC(=O)[C@]2(O)[C@@]3(C)[C@@H](O)CCC(C)(C)[C@@H]3[C@H](O)[C@H](OC(C)=O)[C@@]2(C)O1`
[reply] inactive

====

# System: HB3
# test protocol: qHTS profiling for inhibitors of Plasmodium falciparum proliferation (AID 504749); note: nearly all actives have a fitted effect of over 60% in size
# details: P. falciparum in erythrocytes, SYBR Green DNA, 72 h; series mostly up to 28.7 µM
Inconclusive results are not listed. Active and inactive are the calls of the source. Calls follow the shape of the dose curve; as a rule, active = well fitted inhibition curve with a large enough effect; inconclusive = small, poorly fitted or top-dose-only effect; inactive = flat fitted curve, though single readings scatter.
A correct response names exactly one class from active, inactive

record smiles	system name	class name
Cn1c(=O)c2[nH]c(Br)nc2n(C)c1=O	HB3	inactive
N=C(N)N1CCc2ccccc2C1	HB3	inactive
COc1ccc(CN(CCN(C)C)c2ncccn2)cc1	HB3	inactive
CC(=O)N[C@@H](CCC(=O)O)C(=O)O	HB3	inactive
COc1ccc(C(=O)c2ccccc2O)c(O)c1	HB3	inactive
CCN(CC)CCNc1ccc(CO)c2sc3ccccc3c(=O)c12	HB3	active

[ask] Which outcome was assigned to `Cc1cccc(C)c1NC(=O)CN1CCCCCC1` in this test?
[reply] inactive

====

# test protocol: qHTS assay to identify small molecule inhibitors of chordoma cells - UCH-1 (AID 1259355); note: % is set by controls: 0 for no effect and ±100 for the full control effect; nearly all actives have a fitted effect of over 55% in size
# details: UCH-1 chordoma viability, CellTiter-Glo, 48 h, combination, with auranofin plus four topoisomerase inhibitors; series mostly up to 46.1 µM
Inconclusive results are not listed. Calls of active or inactive are those of the source. Calls come from the whole dose curve; as a rule, active = well fitted cell-killing curve with a large enough effect; inconclusive = small, poorly fitted or top-dose-only effect, or effect the other way; inactive = no such curve, though single readings can be large or run the other way.
observation type: Potency

Example results:
compound	Potency
C#C[C@]1(OC(C)=O)CC[C@H]2[C@@H]3CCC4=C/C(=N/O)CC[C@@H]4[C@H]3CC[C@@]21CC	inactive
CC[C@H](c1ccc(O)cc1)[C@@H](CC)c1ccc(O)cc1	inactive
O=C(O)C(Cc1cc(I)c(O)c(I)c1)c1ccccc1 (stereo unspecified)	inactive
CCN(CC)CCNC(=O)COc1ccc(OC)cc1	inactive

[ask] Look at this compound and give its reported Potency. `Cc1cccc(C)c1NC(=O)CN1CCCCCC1`
[reply] inactive

[ask] Quick one: `CO[C@H]1C=CO[C@@]2(C)Oc3c(C)c(O)c4c(O)c(c(/C=N/N5CCN(C)CC5)c(O)c4c3C2=O)NC(=O)/C(C)=C\C=C[C@H](C)[C@H](O)[C@@H](C)[C@@H](O)[C@@H](C)[C@H](OC(C)=O)[C@@H]1C`
[reply] inactive

[ask] Quick one: `Cc1ccc(O)c([C@H](CCN(C(C)C)C(C)C)c2ccccc2)c1`
[reply] inactive
